Substrate: [H][C@]12C[C@]([H])(OO1)[C@H](C/C=C\CCCC(=O)O)[C@H]2/C=C/[C@@H](O)CCCCC
Experiment Summary: purified protein, by the assay type
Condition Description: pH 8.0; 25.0 °C
Reported Metric: Vmax (µmol/min/mg)
Write the answer as a number in µmol/min/mg, unit excluded.

Guide cases for Vmax, answers given:
Ask | Given the entry Δ^1–24-L-PGDS + T67A/S81A (Mus musculus; S81A/T67A) (protein) MAALRMLWMGLVLLGLLGFPQTPAQGHDTVQPNFQQDKFLGRWYSAGLASNSSWFREKKAVLYMCKAVVAPSTEGGLNLTATFLRKNQCETKIMVLQPAGAPGHYTYSSPHSGSIHSVSVVEANYDEYALLFSRGTKGPGQDFRMATLYSRTQTLKDELKEKFTTFSKAQGLTEEDIVFLPQPDKCIQE , report its measured Vmax.
Reply | 1.3

Ask | Okay, and Δ^1–24-L-PGDS + P110A (Mus musculus; P110A) (protein) MAALRMLWMGLVLLGLLGFPQTPAQGHDTVQPNFQQDKFLGRWYSAGLASNSSWFREKKAVLYMCKTVVAPSTEGGLNLTSTFLRKNQCETKIMVLQPAGAPGHYTYSSAHSGSIHSVSVVEANYDEYALLFSRGTKGPGQDFRMATLYSRTQTLKDELKEKFTTFSKAQGLTEEDIVFLPQPDKCIQE ?
Reply | 4.8

Ask | Okay, and mouse Δ1–24-L-PGDS (lipocalin type prostaglandin D synthase) (Mus musculus; S45A) (protein) QGHDTVQPNFQQDKFLGRWYAAGLASNSSWFREKKAVLYMCKTVVAPSTEGGLNLTSTFLRKNQCETKIMVLQPAGAPGHYTYSSPHSGSIHSVSVVEANYDEYALLFSRGTKGPGQDFRMATLYSRTQTLKDELKEKFTTFSKAQGLTEEDIVFLPQPDKCIQE ?
Reply | 2.3

Ask | Okay, and mouse Δ1–24-L-PGDS (lipocalin type prostaglandin D synthase) (Mus musculus; T67A) (protein) QGHDTVQPNFQQDKFLGRWYSAGLASNSSWFREKKAVLYMCKAVVAPSTEGGLNLTSTFLRKNQCETKIMVLQPAGAPGHYTYSSPHSGSIHSVSVVEANYDEYALLFSRGTKGPGQDFRMATLYSRTQTLKDELKEKFTTFSKAQGLTEEDIVFLPQPDKCIQE ?
Reply | 2.8

Ask | Okay, and mouse Δ1–24-L-PGDS (lipocalin type prostaglandin D synthase) (Mus musculus; H116A) (protein) QGHDTVQPNFQQDKFLGRWYSAGLASNSSWFREKKAVLYMCKTVVAPSTEGGLNLTSTFLRKNQCETKIMVLQPAGAPGHYTYSSPHSGSIASVSVVEANYDEYALLFSRGTKGPGQDFRMATLYSRTQTLKDELKEKFTTFSKAQGLTEEDIVFLPQPDKCIQE ?
Reply | 4.4

Continuing:
Ask | Given the entry Δ^1–24-L-PGDS + S45A/T67A (Mus musculus; S45A/T67A) (protein) MAALRMLWMGLVLLGLLGFPQTPAQGHDTVQPNFQQDKFLGRWYAAGLASNSSWFREKKAVLYMCKAVVAPSTEGGLNLTSTFLRKNQCETKIMVLQPAGAPGHYTYSSPHSGSIHSVSVVEANYDEYALLFSRGTKGPGQDFRMATLYSRTQTLKDELKEKFTTFSKAQGLTEEDIVFLPQPDKCIQE , report its measured Vmax.
Reply | 1.6

Ask | Okay, and mouse Δ1–24-L-PGDS (lipocalin type prostaglandin D synthase) (Mus musculus; W54A) (protein) QGHDTVQPNFQQDKFLGRWYSAGLASNSSAFREKKAVLYMCKTVVAPSTEGGLNLTSTFLRKNQCETKIMVLQPAGAPGHYTYSSPHSGSIHSVSVVEANYDEYALLFSRGTKGPGQDFRMATLYSRTQTLKDELKEKFTTFSKAQGLTEEDIVFLPQPDKCIQE ?
Reply | 3.6

Ask | Okay, and mouse Δ1–24-L-PGDS (lipocalin type prostaglandin D synthase) (Mus musculus; H111A) (protein) QGHDTVQPNFQQDKFLGRWYSAGLASNSSWFREKKAVLYMCKTVVAPSTEGGLNLTSTFLRKNQCETKIMVLQPAGAPGHYTYSSPASGSIHSVSVVEANYDEYALLFSRGTKGPGQDFRMATLYSRTQTLKDELKEKFTTFSKAQGLTEEDIVFLPQPDKCIQE ?
Reply | 5.1
